inhibition at 5 µM listing for selected molecules.
tested on: HCV replication; assay: HCV replicon assay (luciferase) in ET (Huh-lucubineo-ET) cell line; format: cell-based; conditions: Hepatitis C virus, tested at 5 μM; ET replicon cells; luciferase activity measured 48-72 hours later; relative to no compound control
RECORDED ENDPOINT: inhibition at 5 µM (%)

molecule=O=C(NC1CC1)c1ccc(-c2csc(NC(=O)[C@@H]3C[C@@H](Cc4ccccc4)CN3C(=O)OCc3ccccc3)n2)cc1 recorded_endpoint="inhibition at 5 µM" experimental_result=98.4
molecule="O=C(NCc1ccccc1)c1ccc(NC(=O)[C@@H]2CSC(c3ccncc3)N2C(=O)OCc2ccccc2)cc1 (stereo partly drawn)" recorded_endpoint="inhibition at 5 µM" experimental_result=21.3
molecule="COc1ccccc1C1SC[C@@H](C(=O)Nc2nc(-c3ccc(C(=O)NC4CC4)cc3)cs2)N1C(=O)OCc1ccccc1 (mixture of isomers)" recorded_endpoint="inhibition at 5 µM" experimental_result=99.6
molecule="O=C(NC1CC1)c1ccc(-c2csc(NC(=O)[C@@H]3CSC(C4CCOCC4)N3C(=O)OCc3ccccc3)n2)cc1 (mixture of isomers)" recorded_endpoint="inhibition at 5 µM" experimental_result=100
molecule="COC(=O)c1cccc(C2SC[C@@H](C(=O)Nc3nc(-c4ccc(C(=O)NC5CC5)cc4)cs3)N2C(=O)OCc2ccccc2)c1 (mixture of isomers)" recorded_endpoint="inhibition at 5 µM" experimental_result=100
molecule=O=C(NC1CC1)c1ccc(-c2csc(NC(=O)[C@@H]3CC[C@H](c4ccc(CN5CCOCC5)cc4)N3C(=O)OCc3ccccc3)n2)cc1 recorded_endpoint="inhibition at 5 µM" experimental_result=100

====

tested on: HCV replication; assay: HCV replicon assay (luciferase) in ET (Huh-lucubineo-ET) cell line; format: cell-based; settings: Hepatitis C virus, tested at 5 μM; ET replicon cells; luciferase activity measured 48-72 hours later; relative to no compound control
Each entry below carries its reported inhibition at 5 µM.
RECORDED ENDPOINT: inhibition at 5 µM (%)

molecule="O=C(NC1CC1)c1ccc(-c2csc(NC(=O)[C@@H]3CSC(C4CCOCC4)N3C(=O)CC3CC3)n2)cc1 (stereo partly shown)" experimental_result=100
molecule="Cc1ccc2[nH]c(Cc3ccc(NC(=O)[C@@H]4CSC(c5ccncc5)N4C(=O)OCc4ccccc4)cc3)nc2c1 (stereo partly shown)" experimental_result=42.4
molecule=C=C1C[C@@H](C(=O)Nc2nc(-c3ccc(C(=O)NC4CC4)cc3)cs2)N(C(=O)OC(C)(C)C)C1 experimental_result=89.9
molecule="O=C(NC1CC1)c1ccc(-c2csc(NC(=O)[C@@H]3CSC(Cc4ccccc4)N3C(=O)OCc3ccccc3)n2)cc1 (stereo partly shown)" experimental_result=98.4
molecule="CN(C)C(=O)CCC1SC[C@@H](C(=O)Nc2nc(-c3ccc(C(=O)NC4CC4)cc3)cs2)N1C(=O)OCc1ccccc1 (stereo partly shown)" experimental_result=99.9
molecule="CC1(c2ccncc2)SC[C@@H](C(=O)Nc2nc(-c3ccc(C(=O)NC4CC4)cc3)cs2)N1C(=O)OCc1ccccc1 (stereo in doubt)" experimental_result=99.9
molecule=CC(C)(C)OC(=O)N1C[C@@H](c2ccccc2)C[C@H]1C(=O)Nc1nc(-c2ccc(C(=O)NC3CC3)cc2)cs1 experimental_result=6.9
molecule="CC(C)(C)NC(=O)c1ccc(-c2csc(NC(=O)[C@@H]3CSC(c4ccncc4)N3C(=O)OCc3ccccc3)n2)cc1 (stereo partly shown)" experimental_result=100
molecule="O=C(NC1CC1)c1ccc(-c2csc(NC(=O)[C@@H]3CSC(CCCCC(=O)N4CCOCC4)N3C(=O)OCc3ccccc3)n2)cc1 (stereo partly shown)" experimental_result=100
molecule="O=C(NC1CC1)c1ccc(-c2csc(NC(=O)[C@@H]3CSC(C4CCOCC4)N3C(=O)[C@@H]3CCCO3)n2)cc1 (stereo partly shown)" experimental_result=98.8
molecule="CC1SC[C@@H](C(=O)Nc2nc(-c3ccc(C(=O)NC4CC4)cc3)cs2)N1C(=O)OCc1ccccc1 (stereo partly shown)" experimental_result=99.7
molecule=CC(C)(C)OC(=O)N1C[C@H](c2ccccc2)C[C@H]1C(=O)Nc1nc(-c2ccc(C(=O)NC3CC3)cc2)cs1 experimental_result=48.4
molecule="O=C(NCc1ccccc1)c1cccc(NC(=O)[C@@H]2CSC(c3ccncc3)N2C(=O)OCc2ccccc2)c1 (stereo partly shown)" experimental_result=80.1
molecule="O=C(O)c1ccc(C2SC[C@@H](C(=O)Nc3nc(-c4ccc(C(=O)NC5CC5)cc4)cs3)N2C(=O)OCc2ccccc2)cc1 (mixture of isomers)" experimental_result=97.7
molecule="CC(C)(C)OC(=O)N1CCCC(C2SC[C@@H](C(=O)Nc3nc(-c4ccc(C(=O)NC5CC5)cc4)cs3)N2C(=O)OCc2ccccc2)C1 (mixture of isomers)" experimental_result=99.9
molecule="O=C(Nc1ccccc1)c1cccc(NC(=O)[C@@H]2CSC(c3ccncc3)N2C(=O)OCc2ccccc2)c1 (stereo in doubt)" experimental_result=64.2
molecule="O=C(NC1CC1)c1ccc(-c2csc(NC(=O)[C@@H]3COC(CC4CCOCC4)N3C(=O)OCc3ccccc3)n2)cc1 (stereo in doubt)" experimental_result=99.9
molecule="CN(C)C(=O)CCCCC1SC[C@@H](C(=O)Nc2nc(-c3ccc(C(=O)NC4CC4)cc3)cs2)N1C(=O)OCc1ccccc1 (mixture of isomers)" experimental_result=100
molecule=CN1CCC2(CC1)SC[C@@H](C(=O)Nc1nc(-c3ccc(C(=O)NC4CC4)cc3)cs1)N2C(=O)OCc1ccccc1 experimental_result=100
molecule="Cn1ccnc1C1SC[C@@H](C(=O)Nc2nc(-c3ccc(C(=O)NC4CC4)cc3)cs2)N1C(=O)OCc1ccccc1 (single isomer, unassigned) [Compound 7054]" experimental_result=94.1
molecule=O=C(NC1CC1)c1ccc(-c2csc(NC(=O)[C@@H]3Cc4ccccc4N3C(=O)OCc3ccccc3)n2)cc1 experimental_result=100
molecule=O=C(NC1CC1)c1ccc(-c2csc(NC(=O)[C@@H]3C[C@@H]4CCCC[C@@H]4N3C(=O)OCc3ccccc3)n2)cc1 experimental_result=100
molecule="O=C(NC1CC1)c1ccc(-c2csc(NC(=O)[C@@H]3CSC(c4ccccn4)N3C(=O)OCc3ccccc3)n2)cc1 (stereo partly shown)" experimental_result=98.1
molecule=O=C(Nc1nc(-c2ccccc2)cs1)[C@@H]1CS[C@H](c2cccnc2)N1C(=O)OCc1ccccc1 experimental_result=99.9
molecule="O=C(O)c1cccc(C2SC[C@@H](C(=O)Nc3nc(-c4ccc(C(=O)NC5CC5)cc4)cs3)N2C(=O)OCc2ccccc2)c1 (mixture of isomers)" experimental_result=98.7

====

tested on: HCV replication; assay: HCV replicon assay (luciferase) in ET (Huh-lucubineo-ET) cell line; assay type: cell-based; settings: Hepatitis C virus, tested at 5 μM; ET replicon cells; luciferase activity measured 48-72 hours later; relative to no compound control
Recorded inhibition at 5 µM by entry
RECORDED ENDPOINT: inhibition at 5 µM (%)

compound="O=C(NC1CC1)c1ccc(-c2csc(NC(=O)[C@@H]3CSC(C4CCCCC4)N3C(=O)OCc3ccccc3)n2)cc1 (mixture of isomers)" experimental_result=98.9
compound="O=C(O)CCCCC1SC[C@@H](C(=O)Nc2nc(-c3ccc(C(=O)NC4CC4)cc3)cs2)N1C(=O)OCc1ccccc1 (stereo in doubt)" experimental_result=99.8
compound="CN(C(=O)[C@@H]1CSC(c2ccncc2)N1C(=O)OCc1ccccc1)c1nc(-c2ccc(C(=O)NC3CC3)cc2)cs1 (stereo partly drawn)" experimental_result=32.9
